quantity-name: melting point

// known answers, use as guide
Prompt: Which melting point value belongs to `CC(C)(C)c1ccccc1N1CCN(C(=O)C(=O)Nc2ccccn2)CC1` ?
Response: 168 to 172 °C

Prompt: Now try `CCOc1cc(C(=O)O)cc(N)c1Cc1ccccc1` .
Response: 165 to 167 °C

Prompt: Moving on to `CCn1c(C)nc2nc(-c3ccccc3)c(-c3ccccc3)nc21`
Response: 178 to 180 °C

Prompt: Same question, CCn1c2c(c3ccccc31)SCCC2(C)C=O (stereo unspecified) this time
Response: 88.5 to 90 °C

Prompt: Now try `COc1cccc(OC)c1C(=O)Nc1nnc(C2SCCCS2)s1` .
Response: 200 to 208 °C

***
Prompt: Please report the recorded melting point for `C=C(C)C(=O)c1ccc(OC)c(Cl)c1Cl` .
Response: 59 °C

Prompt: // next record `COc1cc2oc(=O)cc(CN3CCC(OC)CC3)c2cc1OC`
Response: 148 to 150 °C

Prompt: Next record, please: `O=CN[C@H]1CC[C@H](CCN2CCN(c3nccc4c3OCC4)CC2)CC1`
Response: 154 °C

Prompt: Thanks! And `Clc1nc(SCc2ccccc2)nc2nc[nH]c12` ?
Response: 176 to 178 °C

Prompt: Next: `CC(C)(C)C=C[C@H](O)c1ccc(C(F)(F)F)cc1`
Response: 30 to 32 °C

Prompt: Item: `N#Cc1cc(F)c(NN=CC(=O)C(F)(F)F)nc1Cl`
Response: 174 to 176 °C
